measuredAttribute: melting point

Here are 5 compounds together with their reported answers.
- compound: "O=C(O)C[C@H](NC(=O)[C@@H]1CCCN2C(=O)CC[C@H](NC(=O)CCc3ccccc3)C(=O)N12)C(=O)CSCc1ccccc1Cl [Compound 125b]"
  measuredAttribute: "melting point"
  measurement: "76 to 80 °C"
- compound: "COC(=O)N[C@H]1CCC(=O)N2CCC[C@@H](C(=O)N[C@@H](CC(=O)O)C(=O)CSc3ncccn3)N2C1=O [Compound 511c]"
  measuredAttribute: "melting point"
  measurement: "105 °C (dec.)"
- compound: "O=C[C@H](CC(=O)O)NC(=O)[C@@H]1CCCN2CCC[C@H](NC(=O)c3ccccc3)C(=O)N12 [Compound 246]"
  measuredAttribute: "melting point"
  measurement: "110 to 115 °C"
- compound: "O=C(O)C[C@H](NC(=O)[C@@H]1CCCN2C(=O)CC[C@H](NC(=O)c3ccccc3)C(=O)N12)C(=O)CSCc1ccccc1Cl [Compound 226e]"
  measuredAttribute: "melting point"
  measurement: "95 to 100 °C"
- compound: "O=C1C[C@H](NC(=O)[C@@H]2CCCN3C(=O)CC[C@H](NC(=O)c4ccccc4)C(=O)N23)[C@H](OCc2ccccc2)O1 [Compound 2100o]"
  measuredAttribute: "melting point"
  measurement: "115 to 117 °C"

Look up melting point for this compound: CCOC1OC(=O)C[C@@H]1NC(=O)[C@@H]1CCCN2C(=O)CC[C@H](NC(=O)c3cc4ccccc4[nH]3)C(=O)N12 (stereo partly drawn) [Compound 550o] 155 to 170 °C

---

- subjectOfTest: ICE (Homo sapiens, UniProt P29466)
- Sequence (P29466 120-297 limits assumed): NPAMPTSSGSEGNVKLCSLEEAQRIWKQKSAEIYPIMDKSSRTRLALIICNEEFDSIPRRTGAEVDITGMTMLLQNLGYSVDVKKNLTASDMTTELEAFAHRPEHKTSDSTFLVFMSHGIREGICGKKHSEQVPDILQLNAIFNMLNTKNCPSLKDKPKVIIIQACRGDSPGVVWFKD
- Sequence (P29466 317-404 limits assumed): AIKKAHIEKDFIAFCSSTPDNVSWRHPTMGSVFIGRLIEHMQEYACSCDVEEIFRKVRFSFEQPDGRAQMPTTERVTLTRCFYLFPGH
- protocol: Enzyme assay with UV-visible substrate (visible ICE assay, Succinyl-Tyr-Val-Ala-Asp-pNitroanilide)
- Type: biochemical
- measurementSetup: Table 27
Overview of reported pKi across a group of molecules:
pKi here is simply -log10 of the concentration when that concentration is written in mol/L.

- structureSmiles: "CC(=O)N[C@@H](CC(=O)O)C(=O)N[C@H]1CN(C(=O)CO)c2ccccc2N(CC(=O)N[C@H](C=O)CC(=O)O)C1=O"
  measuredAttribute: "pKi"
  measurement: 7.05

Look up pKi for this molecule: CCOC(=O)N1C[C@H](NC(=O)c2cc(C)c(O)c(C)c2)C(=O)N(CC(=O)N[C@H](C=O)CC(=O)O)c2ccccc21 8.30

Look up pKi for this molecule: O=C[C@H](CC(=O)O)NC(=O)CN1C(=O)[C@@H](NC(=O)c2nccc3ccccc23)CN(C=O)c2ccccc21 7.74

Look up pKi for this molecule: CCC(=O)N1C[C@H](NC(=O)c2cc(C)c(O)c(C)c2)C(=O)N(CC(=O)N[C@H](C=O)CC(=O)O)c2ccccc21 8.70

Look up pKi for this molecule: O=C[C@H](CC(=O)O)NC(=O)CN1C(=O)[C@@H](NC(=O)c2nccc3ccccc23)CN(C(=O)CO)c2cc(Cl)ccc21 9.30

Look up pKi for this molecule: CS(=O)(=O)CC(=O)N1C[C@H](NC(=O)c2nccc3ccccc23)C(=O)N(CC(=O)N[C@H](C=O)CC(=O)O)c2ccccc21 8.22

Look up pKi for this molecule: COCC(=O)N1C[C@H](NC(=O)c2nccc3ccccc23)C(=O)N(CC(=O)N[C@H](C=O)CC(=O)O)c2ccccc21 8.96

Look up pKi for this molecule: CC(=O)O[C@@H](C)C(=O)N1C[C@H](NC(=O)c2cc(C)c(O)c(C)c2)C(=O)N(CC(=O)N[C@H](C=O)CC(=O)O)c2ccccc21 6.52

Values were extracted from patent US20120165319A1.
